Test system: HARA
Test: relative viability (nuclei count vs DMSO), 5 days (fraction); higher = more cells survive
Condition label: first compound 0.08 µM
Observed property: relative viability

Reference set (2 entries):
Compound: O=c1cc(-c2cccc3c2Sc2ccccc2S3)oc(N2CCOCC2)c1 + C[C@@H](Oc1cc(-c2cnn(C3CCNCC3)c2)cnc1N)c1c(Cl)ccc(F)c1Cl [Crizotinib] (partner 1 µM)
relative viability: 0.971
//
Compound: COc1nc(C)cnc1NS(=O)(=O)c1cccnc1-c1ccc(-c2nnco2)cc1 [Zibotentan] + C[C@]1(O)C[C@@H](c2nc(-c3ccc4ccc(-c5ccccc5)nc4c3)c3c(N)nccn32)C1 [Linsitinib] (partner 1 µM)
relative viability: 1.24

Below: the item to evaluate.
Fill in relative viability for O=c1cc(-c2cccc3c2Sc2ccccc2S3)oc(N2CCOCC2)c1 + Cc1cc(Nc2cc(N3CCN(C)CC3)nc(Sc3ccc(NC(=O)C4CC4)cc3)n2)n[nH]1 [Tozasertib] (partner 0.1 µM) tested with HARA.
0.099
